# Assayed Target: full length recombinant Pim-1 protein (Homo sapiens)
# Construct: by full length recombinant Pim-1, Pim-2, or Pim-3 protein; hexahistidine tag followed by a thrombin cleavage site (N); made in house; host or cells: Sf9 (baculovirus) or E. coli (pET28)
# Sequence (P11309 whole entry): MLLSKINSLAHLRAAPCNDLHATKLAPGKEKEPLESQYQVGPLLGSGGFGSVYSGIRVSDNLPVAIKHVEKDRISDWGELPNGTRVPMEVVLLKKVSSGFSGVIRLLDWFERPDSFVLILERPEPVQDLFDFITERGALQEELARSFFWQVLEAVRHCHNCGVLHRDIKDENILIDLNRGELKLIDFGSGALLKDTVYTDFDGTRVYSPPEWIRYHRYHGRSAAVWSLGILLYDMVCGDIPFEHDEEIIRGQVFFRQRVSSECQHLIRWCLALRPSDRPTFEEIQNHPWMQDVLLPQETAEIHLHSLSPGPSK
# Procedure Summary: Pim-1 enzyme assay (HTRF, phosphorylation of biotinylated-BAD (S112) peptide)
# Type: biochemical
# Run Parameters: read-out: Pim_1_IC50
pIC50: −log10 of the molar value.
Quantity: pIC50

Compound: O=c1cc(-c2n[nH]c3ccc(-c4c(F)cccc4F)cc23)nc[nH]1
pIC50: 6.08
--
Compound: O=c1cc(-c2c[nH]c3ccc(-c4c(F)cccc4F)cc23)nc(N[C@@H]2CCCNC2)[nH]1
pIC50: 9.00
--
Compound: c1cc2[nH]nc(-c3cncc(O[C@H]4CCNCC45CC5)n3)c2cc1-c1cncc(C2CC2)n1
pIC50: 9.00

1: Fc1cccc(F)c1-c1ccc2[nH]nc(-c3cncc(OC4CCNCC45CC5)n3)c2c1 (single isomer, unassigned) [Example 430]
2: Nc1ccc(-c2ccc3[nH]cc(-c4cncc(O[C@@H]5CCCNC5)n4)c3c2)cc1OC(F)(F)F
3: CC(C)Oc1cncc(-c2n[nH]c3ccc(-c4cncc(C5CC5)n4)cc23)n1
Please list these in order of increasing pIC50. Thank you! Reply with the labels, ordered as the question asks. 2, 3, 1
(2: 8.05, 3: 8.40, 1: 9.00)
